system: renal progenitor cells; assay: In situ hybridization for lhx1a expression in 10-somite embryos (renal progenitor cell expansion); assay type: in vivo; settings: Danio rerio; first pass EC50 from percent expansion (Excel trendline); average where several experiments
Checkbox rule: EC50 lower than 1000 nM = 1; EC50 not lower than 1000 nM = 0.

Report whether reported EC50 is lower than 1000 nM (strictly) for "COC(=O)CCCCCS(=O)(=O)c1ccc2ccccc2c1"
0

Report whether reported EC50 is lower than 1000 nM (strictly) for "Nc1ccccc1NC(=O)CCCCCCSc1ccccc1"
0

Report whether reported EC50 is lower than 1000 nM (strictly) for "Nc1ccccc1NC(=O)CCCCCS(=O)(=O)c1ccc2ccccc2c1"
0

Report whether reported EC50 is lower than 1000 nM (strictly) for "COC(=O)CCCCCSc1ccc(F)cc1"
1

Report whether reported EC50 is lower than 1000 nM (strictly) for COC(=O)CCCCCSc1ccccc1 [UPHD-00047, methyl 6-(phenyl-sulfanyl)hexanoate]
1

Report whether reported EC50 is lower than 1000 nM (strictly) for "O=C(CCCCCSc1ccc(F)cc1)Nc1ccccc1O"
1

Report whether reported EC50 is lower than 1000 nM (strictly) for "COC(=O)CCCCSc1ccc(F)cc1"
0

Report whether reported EC50 is lower than 1000 nM (strictly) for "COC(=O)c1ccc(CSc2ccc(F)cc2)cc1"
0

Report whether reported EC50 is lower than 1000 nM (strictly) for "O=C(CCCCCSc1nc2ccccc2s1)NO"
0

Report whether reported EC50 is lower than 1000 nM (strictly) for "COC(=O)CCCCCSc1ccc2ccccc2c1"
0

Report whether reported EC50 is lower than 1000 nM (strictly) for "Nc1ccccc1NC(=O)CCCCSc1ccc(F)cc1"
0

Report whether reported EC50 is lower than 1000 nM (strictly) for "O=C(O)CCCSc1ccccc1"
0

Report whether reported EC50 is lower than 1000 nM (strictly) for "COC(=O)CCCSc1ccc(OC)cc1"
0

Report whether reported EC50 is lower than 1000 nM (strictly) for "O=C(CCCCSc1ccccc1)NO"
0

Report whether reported EC50 is lower than 1000 nM (strictly) for "Nc1ccccc1NC(=O)CCCCCSc1ncccn1"
0

Report whether reported EC50 is lower than 1000 nM (strictly) for "Nc1ccccc1NC(=O)CCCCCCSc1ccc(F)cc1"
0

Report whether reported EC50 is lower than 1000 nM (strictly) for "Cn1c(SCCCCCC(=O)Nc2ccccc2N)nc2ccccc21"
0

Report whether reported EC50 is lower than 1000 nM (strictly) for "Nc1ccccc1NC(=O)CCCCCSc1ccc2ccccc2c1"
0

Report whether reported EC50 is lower than 1000 nM (strictly) for "O=C(NO)c1ccc(CCSc2ccc(F)cc2)cc1"
1

Report whether reported EC50 is lower than 1000 nM (strictly) for "COC(=O)CCCCCSc1ccc(OC)cc1"
0

Report whether reported EC50 is lower than 1000 nM (strictly) for "O=C(CCCCCSc1ccc(F)cc1)NO"
0

Report whether reported EC50 is lower than 1000 nM (strictly) for "COC(=O)c1ccc(CSc2ccccc2)cc1"
0

* * *

system: zebrafish embryos; test: Phenotypic screen for edema and survival in zebrafish larvae at 72 hpf; settings: number of larvae (of 36); 3 μM from 2 hpf, scored at 72 hpf
Assignment: determine reported Edemic 3 (E3) for the given compounds.

Please look at this compound and report its Edemic 3 (E3): "COc1ccc(SCCCC(=O)NO)cc1"
0

Please look at this compound and report its Edemic 3 (E3): O=C(O)c1cccc(Sc2ccccc2)c1 [3-(phenylthio)benzoic acid, reference compound]
0

Please look at this compound and report its Edemic 3 (E3): "O=C(CCCSc1ccc(F)cc1)NO"
8

Please look at this compound and report its Edemic 3 (E3): CCC(=O)CCCCC[C@@H]1NC(=O)[C@H]2CCCCN2C(=O)[C@H]([C@@H](C)CC)NC(=O)[C@H](Cc2cn(OC)c3ccccc23)NC1=O [apicidin, reference compound]
0

Please look at this compound and report its Edemic 3 (E3): "COC(=O)CCCSc1ccccc1"
26
